Recorded values, source the emibetuzumab library of Makowski et al. (2022).

B1: VH:VL chains; a variant is named by its letters at X, in order (parent)
chain 1: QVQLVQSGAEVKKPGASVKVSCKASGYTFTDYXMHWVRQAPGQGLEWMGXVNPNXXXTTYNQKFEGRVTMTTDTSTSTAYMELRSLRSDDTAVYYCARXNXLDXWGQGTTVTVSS
chain 2: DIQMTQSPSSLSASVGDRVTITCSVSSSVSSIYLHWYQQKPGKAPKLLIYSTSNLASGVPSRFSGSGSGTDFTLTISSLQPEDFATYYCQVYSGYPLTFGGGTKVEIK

# Variants of: B1
# Experiment: yeast display scFab, FACS + sequencing
Quantity measured: non-specific binding call

{"columns": ["Variant key", "Quantity measured", "Result"],
 "data": [
  ["FRGRGAWD", "non-specific binding call", "binds"],
  ["VGRGNSGD", "non-specific binding call", "no binding"],
  ["YAGRGASA", "non-specific binding call", "no binding"],
  ["YTGTSSSV", "non-specific binding call", "no binding"],
  ["VRERGSLY", "non-specific binding call", "binds"],
  ["VRGRAAGD", "non-specific binding call", "no binding"],
  ["YRAGSSGD", "non-specific binding call", "binds"],
  ["YRARSSSD", "non-specific binding call", "binds"],
  ["VETGGAAA", "non-specific binding call", "no binding"],
  ["VKGRASSV", "non-specific binding call", "no binding"],
  ["FAEGAAAV", "non-specific binding call", "no binding"],
  ["YREGDAAD", "non-specific binding call", "no binding"],
  ["AKGKASSD", "non-specific binding call", "binds"],
  ["FRERGAAA", "non-specific binding call", "binds"],
  ["YETKGDWD", "non-specific binding call", "no binding"]
]}
